Biological target: T1, Human CLDN6 (on 293T-CLDN6 cells) (human, UniProt P56747 1-220)
T1 construct: In the killing assay it was also endogenous on OVCAR3 and OV90 cells; also called Claudin 6
T1 sequence: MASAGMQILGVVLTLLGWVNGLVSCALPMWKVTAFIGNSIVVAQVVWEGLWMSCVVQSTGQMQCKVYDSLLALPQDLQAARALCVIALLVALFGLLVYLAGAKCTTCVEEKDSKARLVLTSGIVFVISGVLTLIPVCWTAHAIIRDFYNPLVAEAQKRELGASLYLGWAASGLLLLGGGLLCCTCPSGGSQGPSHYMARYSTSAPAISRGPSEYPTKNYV
Assay: flow cytometry on 293T-CLDN6 cells
outcome.measure: EC50 (nM)
Output spec: scalar in nM, unitless text.

binder: Antibody P2 (scFv) (scFv, Prokaryotically expressed single chain antibody) scFv: EVQLVQSGAEVKKPGASVKVSCKASGYTFTGYYMNWVRQAPGQGLEWMGEINPATGSTTYNQKFKARVTITRDTSTSTAYMELSSLRSEDTAVYYCARRDYYYGSGFYAMDYWGQGTLVTVSSGGGGSGGGGSGGGGSDIQMTQSPSSLSASVGDRVTITCQASQSVSNNLNWYQQKPGKAPKLLIYGASKLEDGVPSRFSGSGSGTDFTFTISSLQPEDFATYYCLQHRYMWTFGQGTKVEIK
reported: 144

# context switch: different binder, same EC50
[ask] Find the recorded EC50 belonging to antibody M2 (scFv) (scFv, V domains shown, Tested as a prokaryotically expressed single chain antibody (scFv)) VH: EVQLVQSGAEVKKPGASVKVSCKASGYTFTGYYMNWVRQAPGQGLEWMGEINPATGSTTYNQKFKARVTITRDTSTSTAYMELSSLRSEDTAVYYCARRDYYLGSNSYALDYWGQGTLVTVSS VL: DIQMTQSPSSLSASVGDRVTITCQASQSVSNNLNWYQQKPGKAPKLLIYGASKLEDGVPSRFSGSGSGTDFTFTISSLQPEDFATYYCQQHRFMWTFGQGTKVEIK and report it.
[reply] 24.7
